Test system: Key Broadleaf Weed and Crop Species
experimentalProtocol: Post-Emergent Test II: postemergent herbicidal activity, visual rating after 14 d (Table 7)
Assay type: in vivo
conditionSet: post-emergence, 336 h, velvetleaf (Abutilon theophrasti), 70 g ai/ha, read-out: Visual Growth Reduction (%) 14 Days After Application ABUTH
Hi there, I'd appreciate the recorded pest or weed control at 70 g/ha for every entry that follows.

What value of measured pest or weed control at 70 g/ha is listed for COc1c(N)nc(-c2ccc3c(c2F)OC(F)(F)O3)nc1C(=O)O ?
75 to 84%

What value of measured pest or weed control at 70 g/ha is listed for COC(=O)c1nc(-c2ccc(Cl)c3c2OC(F)(F)O3)c(F)c(N)c1Cl ?
95 to 100%

What value of measured pest or weed control at 70 g/ha is listed for COC(=O)c1nc(-c2c(F)cc3c(c2F)OCO3)cc(N)c1Cl ?
95 to 100%

What value of measured pest or weed control at 70 g/ha is listed for COC(=O)c1nc(-c2cc3c(cc2Cl)OC(F)(F)O3)cc(N)c1Cl ?
0 to 29%

What value of measured pest or weed control at 70 g/ha is listed for COC(=O)c1nc(-c2cc(F)c3c(c2)OC(F)(F)O3)c(F)c(N)c1Cl ?
0 to 29%

What value of measured pest or weed control at 70 g/ha is listed for COC(=O)c1nc(-c2ccc3c(c2)OC(C)(C)O3)nc(N)c1OC ?
0 to 29%

What value of measured pest or weed control at 70 g/ha is listed for COC(=O)c1nc(-c2cc3c(cc2Cl)OC(F)(F)O3)c(F)c(N)c1Cl ?
0 to 29%

What value of measured pest or weed control at 70 g/ha is listed for COC(=O)c1nc(-c2ccc3c(c2Cl)OC(F)(F)O3)cc(N)c1Cl ?
75 to 84%

What value of measured pest or weed control at 70 g/ha is listed for COc1c(N)nc(-c2ccc3c(c2)OC(F)(F)O3)nc1C(=O)O ?
60 to 74%

* * *

Test system: Key Broadleaf Weed and Crop Species
experimentalProtocol: Post-Emergent Test II: postemergent herbicidal activity, visual rating after 14 d (Table 7)
Type: in vivo
conditionSet: post-emergence, 336 h, sunflower (Helianthus annuus), 140 g ai/ha, read-out: Visual Growth Reduction (%) 14 Days After Application HELAN
observationType: pest or weed control at 140 g/ha

What value of measured pest or weed control at 140 g/ha is listed for Nc1c(F)c(-c2ccc3c(c2)OC(F)(F)O3)nc(C(=O)O)c1Cl ?
95 to 100%

What value of measured pest or weed control at 140 g/ha is listed for COC(=O)c1nc(-c2cc3c(cc2F)OC(F)(F)O3)nc(N)c1OC ?
75 to 84%

What value of measured pest or weed control at 140 g/ha is listed for COC(=O)c1nc(-c2ccc3c(c2)OC(C)(C)O3)nc(N)c1Cl ?
75 to 84%

What value of measured pest or weed control at 140 g/ha is listed for COC(=O)c1nc(-c2cc3c(cc2F)OCO3)c(F)c(N)c1Cl ?
95 to 100%

What value of measured pest or weed control at 140 g/ha is listed for COC(=O)c1nc(-c2cc3c(cc2Cl)OC(F)(F)O3)cc(N)c1Cl ?
0 to 29%

What value of measured pest or weed control at 140 g/ha is listed for COC(=O)c1nc(-c2ccc3c(c2OC)OC(F)(F)O3)cc(N)c1Cl ?
45 to 59%

What value of measured pest or weed control at 140 g/ha is listed for COC(=O)c1nc(-c2ccc3c(c2C)OC(F)(F)O3)cc(N)c1Cl ?
95 to 100%

What value of measured pest or weed control at 140 g/ha is listed for COC(=O)c1nc(-c2cc3c(cc2F)OC(F)(F)O3)c(F)c(N)c1Cl ?
95 to 100%

What value of measured pest or weed control at 140 g/ha is listed for Nc1c(F)c(-c2ccc(F)c3c2OC(F)(F)O3)nc(C(=O)O)c1Cl ?
95 to 100%

* * *

Tested on: Key Broadleaf Weed and Crop Species
experimentalProtocol: Post-Emergent Test II: postemergent herbicidal activity, visual rating after 14 d (Table 7)
Assay type: in vivo
conditionSet: post-emergence, 336 h, velvetleaf (Abutilon theophrasti), 140 g ai/ha, read-out: Visual Growth Reduction (%) 14 Days After Application ABUTH
Procedure: Herbicidal evaluations were made visually on a scale of 0 to 100 where 0 represents no activity and 100 represents complete plant death. […] A weighed amount, determined by the highest rate to be tested, of each test compound was placed in a 25 mL glass vial and was dissolved in 4 mL of a 97:3 v/v mixture of acetone and DMSO to obtain concentrated stock solutions. […]
Hi there, I'd appreciate the recorded pest or weed control at 140 g/ha for every entry that follows.

What value of measured pest or weed control at 140 g/ha is listed for COC(=O)c1nc(-c2cc3c(cc2F)OCO3)c(F)c(N)c1Cl ?
75 to 84%

What value of measured pest or weed control at 140 g/ha is listed for COc1cc(-c2nc(C(=O)O)c(Cl)c(N)c2F)cc2c1OCO2 ?
0 to 29%

What value of measured pest or weed control at 140 g/ha is listed for COC(=O)c1nc(-c2cccc3c2OC(F)(F)O3)c(F)c(N)c1Cl ?
85 to 94%

What value of measured pest or weed control at 140 g/ha is listed for COC(=O)c1nc(-c2ccc3c(c2F)OC(F)(F)O3)cc(N)c1Cl ?
95 to 100%

What value of measured pest or weed control at 140 g/ha is listed for Nc1c(F)c(-c2cccc3c2OCO3)nc(C(=O)O)c1Cl ?
95 to 100%

* * *

Hi there, I'd appreciate the recorded pest or weed control at 140 g/ha for every entry that follows.
System: Key Grass and Sedge Weeds as well as Grass Crops
experimentalProtocol: Post-Emergent Test II: postemergent herbicidal activity, visual rating after 14 d (Table 8)
Format: in vivo
conditionSet: post-emergence, 336 h, maize, corn (Zea mays), 140 g ai/ha, read-out: Visual Growth Reduction (%) 14 Days After Application ZEAMX

What value of measured pest or weed control at 140 g/ha is listed for Nc1c(F)c(-c2cc(F)c3c(c2)OC(F)(F)O3)nc(C(=O)O)c1Cl [Compound 18] ?
60 to 74%

What value of measured pest or weed control at 140 g/ha is listed for COC(=O)c1nc(-c2cc3c(cc2F)OC(F)(F)O3)cc(N)c1Cl [Compound 32] ?
75 to 84%

What value of measured pest or weed control at 140 g/ha is listed for COC(=O)c1nc(-c2cc(OC)c3c(c2)OCO3)c(F)c(N)c1Cl [Compound 14] ?
0 to 29%

What value of measured pest or weed control at 140 g/ha is listed for COC(=O)c1nc(-c2ccc(Br)c3c2OC(F)(F)O3)c(F)c(N)c1Cl [Compound 78] ?
60 to 74%

What value of measured pest or weed control at 140 g/ha is listed for COC(=O)c1nc(-c2ccc3c(c2OC)OC(F)(F)O3)cc(N)c1Cl [Compound 47] ?
0 to 29%

What value of measured pest or weed control at 140 g/ha is listed for COC(=O)c1nc(-c2ccc3c(c2)OC(C)O3)c(F)c(N)c1Cl (stereo not drawn) [Compound 20] ?
60 to 74%

What value of measured pest or weed control at 140 g/ha is listed for C=Cc1c(C(=O)OC)nc(-c2cc3c(cc2F)OC(F)(F)O3)c(F)c1N [Compound 27] ?
30 to 44%

What value of measured pest or weed control at 140 g/ha is listed for COC(=O)c1nc(-c2ccc3c(c2F)OC(F)(F)O3)c(Cl)c(N)c1Cl [Compound 4] ?
0 to 29%

What value of measured pest or weed control at 140 g/ha is listed for COC(=O)c1nc(-c2ccc3c(c2)OC(F)(F)O3)c(F)c(N)c1Cl [Compound 6] ?
85 to 94%

* * *

System: Direct Seeded Rice and weed species
experimentalProtocol: Postemergence herbicidal activity in direct seeded rice, visual rating after 20-22 days and probit GR20/GR50/GR80/GR90 (Table 14)
Format: in vivo
conditionSet: post-emergence, 504 h; ORYSJ (Oryza sativa, rice crop); 70 g ai/ha; postemergence; read-out: Visual Growth Reduction (%) 21 Days After Application ORYSJ
Hi there, I'd appreciate the recorded pest or weed control at 70 g/ha for every entry that follows.

What value of measured pest or weed control at 70 g/ha is listed for Nc1cc(-c2cc3c(cc2F)OC(F)(F)O3)nc(C(=O)O)c1Cl ?
95 to 100%

What value of measured pest or weed control at 70 g/ha is listed for COc1c(N)nc(-c2ccc3c(c2F)OC(F)(F)O3)nc1C(=O)O ?
85 to 94%

What value of measured pest or weed control at 70 g/ha is listed for Nc1c(F)c(-c2ccc3c(c2F)OC(F)(F)O3)nc(C(=O)O)c1Cl ?
85 to 94%

What value of measured pest or weed control at 70 g/ha is listed for Nc1cc(-c2ccc3c(c2F)OC(F)(F)O3)nc(C(=O)O)c1Cl ?
95 to 100%

What value of measured pest or weed control at 70 g/ha is listed for COC(=O)c1nc(-c2ccc3c(c2F)OC(F)(F)O3)c(F)c(N)c1Cl ?
75 to 84%

What value of measured pest or weed control at 70 g/ha is listed for Nc1c(F)c(-c2cc3c(cc2F)OC(F)(F)O3)nc(C(=O)O)c1Cl ?
95 to 100%

What value of measured pest or weed control at 70 g/ha is listed for COc1c(C(=O)O)nc(-c2ccc3c(c2)OC(F)(F)O3)c(F)c1N ?
95 to 100%

What value of measured pest or weed control at 70 g/ha is listed for COC(=O)c1nc(-c2ccc3c(c2F)OC(F)(F)O3)cc(N)c1Cl ?
30 to 44%
